Test system: Capsicum phytophthora blight
experimentSummary: In vitro fungicidal activity, PDA colony diameter
Format: cell-based
setupConditions: 96 h
The entries below are paired with their reported inhibition of growth at 50 mg/kg.

structureString: CC1=NNC(=O)N(N(S(C)(=O)=O)S(C)(=O)=O)C1
experimentalTarget: Capsicum phytophthora blight
inhibition of growth at 50 mg/kg [%]: 26.5

structureString: CC1=NNC(=O)N(NS(=O)(=O)c2cn(C)cn2)C1
experimentalTarget: Capsicum phytophthora blight
inhibition of growth at 50 mg/kg [%]: 18.8

structureString: CC1=NNC(=O)N(NS(=O)(=O)c2cccs2)C1
experimentalTarget: Capsicum phytophthora blight
inhibition of growth at 50 mg/kg [%]: 25

structureString: CC1=NNC(=O)N(NS(=O)(=O)c2ccc(Br)cc2)C1
experimentalTarget: Capsicum phytophthora blight
inhibition of growth at 50 mg/kg [%]: 27.8

structureString: CC1=NNC(=O)N(NS(=O)(=O)c2ccc3c(c2)CCO3)C1
experimentalTarget: Capsicum phytophthora blight
inhibition of growth at 50 mg/kg [%]: 19.2

###

System: Armyworms
experimentSummary: Test of insecticidal activity against armyworms (leaf immersion)
setupConditions: 600 mg/kg, 3-4 days

structureString: CC1=NNC(=O)N(NS(=O)(=O)c2cccs2)C1
Mortalities (%) Armyworms: 5

structureString: CC1=NNC(=O)N(NS(=O)(=O)c2ccccc2)C1
Mortalities (%) Armyworms: 35

structureString: CC1=NNC(=O)N(NS(=O)(=O)c2ccsc2)C1
Mortalities (%) Armyworms: 10

structureString: CC1=NNC(=O)N(NS(=O)(=O)C2CC2)C1
Mortalities (%) Armyworms: 10

structureString: CC1=NNC(=O)N(NS(=O)(=O)c2ccc(C(F)(F)F)cc2)C1
Mortalities (%) Armyworms: 45

structureString: CC1=NNC(=O)N(N(S(=O)(=O)c2cccnc2)S(=O)(=O)c2cccnc2)C1
Mortalities (%) Armyworms: 15

structureString: CC1=NNC(=O)N(NS(=O)(=O)c2ccc3c(c2)OCCO3)C1
Mortalities (%) Armyworms: 15

structureString: CC1=NNC(=O)N(N(S(=O)(=O)c2ccc([N+](=O)[O-])cc2)S(=O)(=O)c2ccc([N+](=O)[O-])cc2)C1
Mortalities (%) Armyworms: 20

###

System: mosquito larvae (Culer pipiens pallens)
experimentSummary: Test of insecticidal activity against mosquito larvae (checked after 24 h)
setupConditions: 24 h, read-out: Mortalities (%) against mosquito larvae
// mortality at 10 mg/kg lookup, one value per entry

molecule: CC1=NNC(=O)N(NS(=O)(=O)c2cn(C)c(C)n2)C1
mortality at 10 mg/kg, %: 20
--
molecule: CC1=NNC(=O)N(NS(=O)(=O)c2ccc(F)cc2F)C1
mortality at 10 mg/kg, %: 100
--
molecule: CC1=NNC(=O)N(NS(=O)(=O)c2ccc(C)cc2)C1
mortality at 10 mg/kg, %: 100
--
molecule: CC1=NNC(=O)N(N(S(=O)(=O)c2ccc(C)cc2)S(=O)(=O)c2ccc(C)cc2)C1
mortality at 10 mg/kg, %: 35
--
molecule: CC1=NNC(=O)N(NS(=O)(=O)c2ccccc2C)C1
mortality at 10 mg/kg, %: 100
--
molecule: CC1=NNC(=O)N(NS(=O)(=O)c2cccc(C)c2)C1
mortality at 10 mg/kg, %: 100
--
molecule: CC1=NNC(=O)N(N(S(=O)(=O)c2ccc([N+](=O)[O-])cc2)S(=O)(=O)c2ccc([N+](=O)[O-])cc2)C1
mortality at 10 mg/kg, %: 60
--
molecule: CCCS(=O)(=O)N(N1CC(C)=NNC1=O)S(=O)(=O)CCC
mortality at 10 mg/kg, %: 25
--
molecule: CC1=NNC(=O)N(/N=C/c2cccnc2)C1 [Pymetrozine, reference compound]
mortality at 10 mg/kg, %: 100

###

Test system: mosquito larvae (Culer pipiens pallens)
experimentSummary: Test of insecticidal activity against mosquito larvae (checked after 24 h)
setupConditions: 24 h, read-out: Mortalities (%) against mosquito larvae
Use Satisfied when the recorded mortality at 2 mg/kg is no lower than 40%; use Not satisfied when it is lower.

compound: CC1=NNC(=O)N(NS(=O)(=O)c2ccc(F)c(F)c2F)C1 [Ia-20]
className: Not satisfied
//
compound: COc1ccc(S(=O)(=O)NN2CC(C)=NNC2=O)cc1 [Ia-14]
className: Not satisfied
//
compound: CC1=NNC(=O)N(NS(=O)(=O)c2ccc(F)cc2F)C1 [Ia-19]
className: Satisfied
//
compound: CC1=NNC(=O)N(NS(=O)(=O)c2cccc(C)c2)C1 [Ia-11]
className: Not satisfied
//
compound: CC1=NNC(=O)N(NS(=O)(=O)c2ccc(I)cc2)C1 [Ia-23]
className: Satisfied
//
compound: CC1=NNC(=O)N(NS(=O)(=O)c2ccccc2F)C1 [Ia-16]
className: Not satisfied
//
compound: CC1=NNC(=O)N(NS(=O)(=O)c2ccc(Br)cc2)C1 [Ia-22]
className: Satisfied
//
compound: CC1=NNC(=O)N(NS(=O)(=O)c2cccc(F)c2)C1 [Ia-17]
className: Satisfied
//
compound: CC1=NNC(=O)N(NS(=O)(=O)c2ccc(C)cc2)C1 [Ia-12]
className: Not satisfied
//
compound: CC1=NNC(=O)N(NS(=O)(=O)c2ccc(OC(F)(F)F)cc2)C1 [Ia-27]
className: Not satisfied
//
compound: CC1=NNC(=O)N(NS(=O)(=O)c2c(C)cc(C)cc2C)C1 [Ia-13]
className: Not satisfied
//
compound: CC1=NNC(=O)N(NS(=O)(=O)c2ccc(C(F)(F)F)cc2)C1 [Ia-26]
className: Satisfied
//
compound: CC1=NNC(=O)N(NS(=O)(=O)c2ccccc2)C1 [Ia-9]
className: Not satisfied

###

System: Wheat sheath blight
experimentSummary: In vitro fungicidal activity, PDA colony diameter
Assay type: cell-based
setupConditions: 50 mg/kg, inhibition of colony diameter; read-out: Fungicidal activity (%) Wheat sheath blight

molecule: CC1=NNC(=O)N(NS(=O)(=O)c2cccc3ccccc23)C1
inhibition at 50 mg/kg: 30.2%
--
molecule: CC1=NNC(=O)N(NS(=O)(=O)c2ccc(F)cc2)C1
inhibition at 50 mg/kg: 4.3%
--
molecule: COC(=O)Nc1nc2ccccc2[nH]1 [Carbendazim, reference compound]
inhibition at 50 mg/kg: 100%

###

// reported Mortalities (%) Armyworms for each item listed
Test system: Armyworms
experimentSummary: Test of insecticidal activity against armyworms (leaf immersion)
setupConditions: 600 mg/kg, 3-4 days
observable: Mortalities (%) Armyworms

structureString: CC1=NNC(=O)N(NS(=O)(=O)c2ccc(F)cc2)C1
observable: Mortalities (%) Armyworms
reported: 50%
//
structureString: CCCS(=O)(=O)N(N1CC(C)=NNC1=O)S(=O)(=O)CCC
observable: Mortalities (%) Armyworms
reported: 10%
//
structureString: CC1=NNC(=O)N(NS(=O)(=O)c2ccccc2F)C1
observable: Mortalities (%) Armyworms
reported: 10%
//
structureString: CC1=NNC(=O)N(NS(=O)(=O)C2CCCCC2)C1
observable: Mortalities (%) Armyworms
reported: 50%
//
structureString: CC1=NNC(=O)N(NS(=O)(=O)c2ccc(F)c(F)c2F)C1
observable: Mortalities (%) Armyworms
reported: 65%

###

Test system: Wheat sheath blight
experimentSummary: In vitro fungicidal activity, PDA colony diameter
Assay type: cell-based
setupConditions: 50 mg/kg, inhibition of colony diameter; read-out: Fungicidal activity (%) Wheat sheath blight

compound: CC1=NNC(=O)N(NS(=O)(=O)c2ccsc2)C1
measurementUnits: %
inhibition at 50 mg/kg: 20.8
--
compound: CC1=NNC(=O)N(NS(=O)(=O)C2CCCCC2)C1
measurementUnits: %
inhibition at 50 mg/kg: 30.9
--
compound: CC1=NNC(=O)N(NS(=O)(=O)c2ccc(OC(F)(F)F)cc2)C1
measurementUnits: %
inhibition at 50 mg/kg: 4.3
--
compound: CC1=NNC(=O)N(NS(=O)(=O)c2cccs2)C1
measurementUnits: %
inhibition at 50 mg/kg: 8.7
--
compound: CCS(=O)(=O)N(N1CC(C)=NNC1=O)S(=O)(=O)CC
measurementUnits: %
inhibition at 50 mg/kg: 61.4
--
compound: CC1=NNC(=O)N(NS(=O)(=O)c2ccc3c(c2)OCCO3)C1
measurementUnits: %
inhibition at 50 mg/kg: 36.8
--
compound: CC1=NNC(=O)N(NS(=O)(=O)c2ccc(C#N)cc2)C1
measurementUnits: %
inhibition at 50 mg/kg: 14.3
--
compound: CCCCS(=O)(=O)NN1CC(C)=NNC1=O
measurementUnits: %
inhibition at 50 mg/kg: 70.5
--
compound: CC1=NNC(=O)N(NS(=O)(=O)c2ccc3c(c2)CCO3)C1
measurementUnits: %
inhibition at 50 mg/kg: 9.4
--
compound: CC1=NNC(=O)N(NS(=O)(=O)C2CC2)C1
measurementUnits: %
inhibition at 50 mg/kg: 8.7
--
compound: CC1=NNC(=O)N(NS(=O)(=O)c2ccc(F)cc2F)C1
measurementUnits: %
inhibition at 50 mg/kg: 0
--
compound: CC1=NNC(=O)N(N(S(=O)(=O)c2ccc(C)cc2)S(=O)(=O)c2ccc(C)cc2)C1
measurementUnits: %
inhibition at 50 mg/kg: 56.8
--
compound: CC1=NNC(=O)N(NS(=O)(=O)c2c(C)cc(C)cc2C)C1
measurementUnits: %
inhibition at 50 mg/kg: 4.3
--
compound: CC1=NNC(=O)N(/N=C/c2cccnc2)C1 [Pymetrozine, reference compound]
measurementUnits: %
inhibition at 50 mg/kg: 63.6
--
compound: COc1ccc(S(=O)(=O)NN2CC(C)=NNC2=O)cc1
measurementUnits: %
inhibition at 50 mg/kg: 21.7
--
compound: CC1=NNC(=O)N(NS(=O)(=O)c2ccc(C(F)(F)F)cc2)C1
measurementUnits: %
inhibition at 50 mg/kg: 0
--
compound: CC1=NNC(=O)N(N(S(=O)(=O)c2ccccc2)S(=O)(=O)c2ccccc2)C1
measurementUnits: %
inhibition at 50 mg/kg: 68.2
--
compound: CC1=NNC(=O)N(NS(=O)(=O)c2cn(C)c(C)n2)C1
measurementUnits: %
inhibition at 50 mg/kg: 30.9
--
compound: CC1=NNC(=O)N(NS(=O)(=O)c2ccccc2C)C1
measurementUnits: %
inhibition at 50 mg/kg: 14.3
--
compound: CC1=NNC(=O)N(NS(=O)(=O)c2ccc(Cl)cc2)C1
measurementUnits: %
inhibition at 50 mg/kg: 14.3
--
compound: CC1=NNC(=O)N(NS(C)(=O)=O)C1
measurementUnits: %
inhibition at 50 mg/kg: 63.6
--
compound: CC1=NNC(=O)N(NS(=O)(=O)c2c(C)noc2C)C1
measurementUnits: %
inhibition at 50 mg/kg: 7.5
--
compound: CC1=NNC(=O)N(NS(=O)(=O)c2ccccc2)C1
measurementUnits: %
inhibition at 50 mg/kg: 40.9
--
compound: CC1=NNC(=O)N(N(S(C)(=O)=O)S(C)(=O)=O)C1
measurementUnits: %
inhibition at 50 mg/kg: 56.8
--
compound: CC1=NNC(=O)N(NS(=O)(=O)c2ccc(F)c(F)c2F)C1
measurementUnits: %
inhibition at 50 mg/kg: 17.4
--
compound: CC1=NNC(=O)N(NS(=O)(=O)c2cn(C)cn2)C1
measurementUnits: %
inhibition at 50 mg/kg: 47.1
--
compound: CC1=NNC(=O)N(N(S(=O)(=O)c2cccnc2)S(=O)(=O)c2cccnc2)C1
measurementUnits: %
inhibition at 50 mg/kg: 15.1
--
compound: N#Cc1c(Cl)c(Cl)c(Cl)c(C#N)c1Cl [Chlorothalonil, reference compound]
measurementUnits: %
inhibition at 50 mg/kg: 100
--
compound: CC1=NNC(=O)N(NS(=O)(=O)c2ccc(C)cc2)C1
measurementUnits: %
inhibition at 50 mg/kg: 72.7
--
compound: CCS(=O)(=O)NN1CC(C)=NNC1=O
measurementUnits: %
inhibition at 50 mg/kg: 63.6
--
compound: CC(=O)Nc1ccc(S(=O)(=O)N(N2CC(C)=NNC2=O)S(=O)(=O)c2ccc(NC(C)=O)cc2)cc1
measurementUnits: %
inhibition at 50 mg/kg: 45.5
--
compound: CC1=NNC(=O)N(NS(=O)(=O)Cc2ccccc2)C1
measurementUnits: %
inhibition at 50 mg/kg: 63.6
--
compound: CC1=NNC(=O)N(NS(=O)(=O)c2cccc(C)c2)C1
measurementUnits: %
inhibition at 50 mg/kg: 14.3
--
compound: CC1=NNC(=O)N(NS(=O)(=O)c2ccc(C(C)(C)C)cc2)C1
measurementUnits: %
inhibition at 50 mg/kg: 9.3
--
compound: CC1=NNC(=O)N(NS(=O)(=O)c2ccc(I)cc2)C1
measurementUnits: %
inhibition at 50 mg/kg: 21.7
--
compound: CCCCS(=O)(=O)N(N1CC(C)=NNC1=O)S(=O)(=O)CCCC
measurementUnits: %
inhibition at 50 mg/kg: 65.5
--
compound: CC(=O)Nc1ccc(S(=O)(=O)NN2CC(C)=NNC2=O)cc1
measurementUnits: %
inhibition at 50 mg/kg: 52.3
--
compound: CCCS(=O)(=O)NN1CC(C)=NNC1=O
measurementUnits: %
inhibition at 50 mg/kg: 47.7
--
compound: CCCS(=O)(=O)N(N1CC(C)=NNC1=O)S(=O)(=O)CCC
measurementUnits: %
inhibition at 50 mg/kg: 52.3
--
compound: CC1=NNC(=O)N(NS(=O)(=O)c2cccc(F)c2)C1
measurementUnits: %
inhibition at 50 mg/kg: 14.3
--
compound: CC1=NNC(=O)N(NS(=O)(=O)c2ccccc2F)C1
measurementUnits: %
inhibition at 50 mg/kg: 14.3
--
compound: CC1=NNC(=O)N(NS(=O)(=O)c2ccc(Br)cc2)C1
measurementUnits: %
inhibition at 50 mg/kg: 8.7
